What self-cleavage kobs at 2500 uM GlcN6P was measured for each of the following?
B1: glmS ribozyme (parent)
chain: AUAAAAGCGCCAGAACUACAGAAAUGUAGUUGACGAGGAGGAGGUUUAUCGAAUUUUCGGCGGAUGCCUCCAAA

- Variants of: B1
- test-name: self-cleavage kobs at 2500 uM GlcN6P; higher = faster cleavage; RNA array
- experimental-parameters: with glucosamine-6-phosphate
This sample holds only a part of the variants without activity.

Ask | Dear colleague, I am looking for the recorded self-cleavage kobs at 2500 uM GlcN6P of the following variant: AUAAAGGCUCCAGAACUACAGAAAUGUAUUUGACGAAGAGGAGGUCUAUCGAAUUCUCGGCGGAUGCCUCCAAA [A6G G9U G29U G37A U46C U56C]
Reply | < 1e-05 s⁻¹

Ask | Dear colleague, I am looking for the recorded self-cleavage kobs at 2500 uM GlcN6P of the following variant: AUAAAAGCGUCAGAACUACAGAAAUGUAGUUGACGGGGAGUAGGUUUAUCGAAUUUUCUGCGGAUGCAUCCAAA [C10U A36G G41U G59U C68A]
Reply | < 1e-05 s⁻¹

Ask | Dear colleague, I am looking for the recorded self-cleavage kobs at 2500 uM GlcN6P of the following variant: AUAAAAGCGCCAGACCUACAGAAAUGUAGUUGACGAGGAUGCGGUUUAUCGAAUUUUCGGCGGAUGCCUCCAAA [A15C G40U A42C]
Reply | < 1e-05 s⁻¹

Ask | Dear colleague, I am looking for the recorded self-cleavage kobs at 2500 uM GlcN6P of the following variant: AUAAAAGCGCCAGAACUACAGAAAUGUAGUUGCCGCGUAGAAGGUUUAUCGAAUUUUCGGCGGAUCCCUCCAAA [A33C A36C G38U G41A G66C]
Reply | < 1e-05 s⁻¹

Ask | Dear colleague, I am looking for the recorded self-cleavage kobs at 2500 uM GlcN6P of the following variant: AUAAAAGCUCCAUAACUACAGAAAUGUACUUCGCGAGGAGGAGGUUUAUCGAAUUUUCGGCGGAUGCCUCCAAA [G9U G13U G29C G32C A33G]
Reply | < 1e-05 s⁻¹

Ask | Dear colleague, I am looking for the recorded self-cleavage kobs at 2500 uM GlcN6P of the following variant: AUAAAAACGCCAGAACUACAGAAAUGUAGUUGACGAGGAGGAGGUUUAUCUAAGUUUCGGCGGAUGCCUCCAAA [G7A G51U U54G]
Reply | < 1e-05 s⁻¹
